Tested on: 616215-338-R-J1-PDC complex spheroid viability
Assay: Anticancer human tumor 616215-338-R-J1-PDC patient-derived colon adenocarcinoma cell line growth inhibition [RAS]
Conditions: second compound 0.00316 µM; first compound 0.0316 µM; hits give low values
Recorded viability, T/C by entry
observed_property: viability, T/C

[[record]]
compound = "NC1c2ccccc2OC12CCN(c1cnc3c(N4CCCc5ncccc54)n[nH]c3n1)CC2 (stereo not drawn) + C=CC(=O)N1CCN(c2nc(OCC3CCCN3C)nc3c(F)c(-c4nc(N)cc(C)c4C(F)(F)F)c(Cl)cc23)C(C)C1"
observed_property = "viability, T/C"
readout_value = "119%"

[[record]]
compound = "CC(Nc1ccc2c(c1)OCCn1cc(N3C(=O)OCC3C(F)F)nc1-2)C(N)=O (stereo not drawn) + C=CC(=O)N1CCN(c2nc(OCC3CCCN3C)nc3c(F)c(-c4nc(N)cc(C)c4C(F)(F)F)c(Cl)cc23)C(C)C1"
observed_property = "viability, T/C"
readout_value = "106%"

[[record]]
compound = "CC(C)NCC(C(=O)N1CCN(c2ncnc3c2C(C)CC3O)CC1)c1ccc(Cl)cc1 (stereo not drawn) + C=CC(=O)N1CCN(c2nc(OCC3CCCN3C)nc3c(F)c(-c4nc(N)cc(C)c4C(F)(F)F)c(Cl)cc23)C(C)C1"
observed_property = "viability, T/C"
readout_value = "97.1%"


* * *

Tested on: 616215-338-R-J1-PDC complex spheroid viability
Assay: Anticancer human tumor 616215-338-R-J1-PDC cell line growth inhibition [RAS];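 further: spheroids exposed to agents for seven days before viability readout; 100% = DMSO vehicle control viability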
Settings: second compound 0.3 µM; first compound 0.1 µM; hits give low values
observed_property: viability, T/C (%)

[[record]]
molecule = "CC(C)n1nc(-c2ccc3oc(N)nc3c2)c2c(N)ncnc21 + CCn1c(-c2cccnc2C(C)OC)c2c3cc(ccc31)N1CCOC(CC(NC(=O)C(C(C)C)N(C)C(=O)C3(F)CCN(C(=O)C#CC(C)(C)N(C)C)CC3)C(=O)N3CCCC(N3)C(=O)OCC(C)(C)C2)C1"
target_or_system = "616215-338-R-J1-PDC complex spheroid viability"
observed_property = "viability, T/C"
unit_string = "%"
readout_value = 38.9

[[record]]
molecule = "Nc1ccn(C2OC(CO)C(O)C2(F)F)c(=O)n1 (centres undefined) + CCn1c(-c2cccnc2C(C)OC)c2c3cc(ccc31)N1CCOC(CC(NC(=O)C(C(C)C)N(C)C(=O)C3(F)CCN(C(=O)C#CC(C)(C)N(C)C)CC3)C(=O)N3CCCC(N3)C(=O)OCC(C)(C)C2)C1"
target_or_system = "616215-338-R-J1-PDC complex spheroid viability"
observed_property = "viability, T/C"
unit_string = "%"
readout_value = 16.6

[[record]]
molecule = "C=CC(=O)N1CCN(c2nc(OCC3CCCN3C)nc3c(F)c(-c4nc(N)cc(C)c4C(F)(F)F)c(Cl)cc23)C(C)C1 (centres undefined) + CCn1c(-c2cc(N3CCN(C)CC3)cnc2C(C)OC)c2c3cc(ccc31)-c1csc(n1)CC(NC(=O)C1CC1C)C(=O)N1CCCC(N1)C(=O)OCC(C)(C)C2"
target_or_system = "616215-338-R-J1-PDC complex spheroid viability"
observed_property = "viability, T/C"
unit_string = "%"
readout_value = 42.6

[[record]]
molecule = "CC(=O)OC12COC1CC(O)C1(C)C(=O)C(O)C3=C(C)C(OC(=O)C(O)C(NC(=O)OC(C)(C)C)c4ccccc4)CC(O)(C(OC(=O)c4ccccc4)C21)C3(C)C (centres undefined) + CCn1c(-c2cccnc2C(C)OC)c2c3cc(ccc31)N1CCOC(CC(NC(=O)C(C(C)C)N(C)C(=O)C3(F)CCN(C(=O)C#CC(C)(C)N(C)C)CC3)C(=O)N3CCCC(N3)C(=O)OCC(C)(C)C2)C1"
target_or_system = "616215-338-R-J1-PDC complex spheroid viability"
observed_property = "viability, T/C"
unit_string = "%"
readout_value = 17.9

